B1: SLC35F2 (parent)
chain: QYLAERYKVNTPMLQSFINYCLLF

Variants of: B1
Test: protein stability index of a GFP-peptide fusion (GPS, HEK-293T) (PSI 1-6); higher = more stable;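 further: lentivirally expressed fusions sorted by FACS into six bins by GFP to DsRed ratio, PSI derived from sequencing read proportions per bin multiplied by bin number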
Conditions: c terminus: a fixed tail appended
Property Label: protein stability index
One number for each entry.

# Mutation Label, Property Label, Numeric Readout
rows = [
    ("K8D", "protein stability index", 2.44),
    ("M13V", "protein stability index", 3.22),
    ("S16V", "protein stability index", 3.01),
    ("V9D", "protein stability index", 1.8),
    ("Q1N", "protein stability index", 2.15),
    ("L22Y", "protein stability index", 3.57),
    ("P12K", "protein stability index", 1.74),
    ("N19S", "protein stability index", 2.38),
    ("N10E", "protein stability index", 2.2),
    ("Y20R", "protein stability index", 2.47),
]

Need protein stability index for each of these variants.
1. Q15F
2. S16I
3. N19W

[3.17, 3, 2.94]
